# Experimental system: p53(Y220C) (Homo sapiens, UniProt P04637, Y220C)
# Construct: His-p53 Y220C (94-294) protein
# Experimental details: In vitro DNA binding assay (HTRF), His-p53 Y220C (94-294) with biotinylated p53 consensus DNA
# Assay type: biochemical
# Condition description: HTRF; 27 °C; His-p53 Y220C (94-294) 2.5 nM; biotinylated DNA 10 nM; normalized to 2 μM Ref-1a; EC50 = concentration at 50% Activation; read-out: p53(Y220C) EC50
Quantity name: pEC50
Please treat pEC50 as minus the base-10 logarithm of the molar concentration.

Look up pEC50 for this molecule: CN1CC[C@@H](Nc2cccc3c(CC(F)(F)F)c(C#C[C@@H]4Cc5cc(P(C)(C)=O)ccc5N4)sc23)[C@@H](F)C1 [Example 21]
6.37

Now try COc1c(NCC#Cc2sc3c(N[C@@H]4CCN(C)C[C@@H]4F)cccc3c2CC(F)(F)F)ccc(P(C)(C)=O)c1OC [Example 57] .
7.43

Now try COc1nc([S@](C)(=N)=O)ccc1NCC#Cc1sc2c(N[C@@H]3CCN(C)C[C@@H]3F)cccc2c1CC(F)(F)F [Example 44] .
7.34

Now try COc1cc([S@@](C)(=N)=O)ccc1NCC#Cc1sc2c(N[C@H]3CCN(C)C[C@H]3F)cccc2c1[C@@H](O)C(F)(F)F [Example 61] .
7.44

Now try COc1cc(P(C)(C)=O)ccc1NCC#Cc1sc2c(N[C@@H]3CCN(C)C[C@@H]3F)cccc2c1C(C)C(F)(F)F (some centres unmarked) [Example 18] .
6.24

====

# Experimental system: p53(Y220C)_NUGC-3 (Homo sapiens, UniProt P04637, Y220C)
# Experimental details: Reporter gene assay (NUGC-3_P53_Luc cells)
# Format: cell-based
# Condition description: read-out: p53(Y220C)_NUGC-3 EC50, 6 hours, 37 °C, luciferase, normalized to Ref-1a 10 μM, EC50 = concentration at 50% Activity
Quantity name: EC50

Look up EC50 for this compound: COc1cc(P(C)(C)=O)ccc1NCC#Cc1sc2c(N[C@@H]3CN4CCC3CC4)cccc2c1CC(F)(F)F [Example 48]
439 nM

====

# pEC50 per entry
# Experimental system: p53(Y220C)_NUGC-3 (Homo sapiens, UniProt P04637, Y220C)
# Experimental details: Reporter gene assay (NUGC-3_P53_Luc cells)
# Type: cell-based
# Condition description: 6 hours, 37 °C, luciferase, normalized to Ref-1a 10 μM, EC50 = concentration at 50% Activity, read-out: p53(Y220C)_NUGC-3 EC50
Please treat pEC50 as minus the base-10 logarithm of the molar concentration.

[
  {
    "Cpd smiles": "COc1cc(P(C)(C)=O)ccc1NCC#Cc1sc2c(N[C@@H]3CCN(C)C[C@@H]3F)cccc2c1[C@@H](O)C(F)(F)F",
    "Reported result": 6.99
  },
  {
    "Cpd smiles": "COc1cc([S@@](C)(=N)=O)ccc1NCC#Cc1sc2c(N[C@@H]3CCN(C)C[C@@H]3F)cccc2c1[C@@H](O)C(F)(F)F",
    "Reported result": 6.55
  },
  {
    "Cpd smiles": "CCOc1c(P(C)(C)=O)ccc(NCC#Cc2sc3c(N[C@@H]4CCN(C)C[C@@H]4F)cccc3c2CC(F)(F)F)c1OC",
    "Reported result": 6.80
  }
]

For the record `COc1cc(P(C)(C)=O)ccc1NCC#Cc1sc2c(N[C@@H]3CCCN(C)C3)cccc2c1CC(F)(F)F` , what value of pEC50 is listed for p53(Y220C)_NUGC-3 (Homo sapiens, UniProt P04637, Y220C)?
6.61
